Provenance of the data: patent US20090298765A1

Target: human OT7T175 (metastin receptor) (human, UniProt Q969F8 1-398)
Sequence (Q969F8 whole entry L364H): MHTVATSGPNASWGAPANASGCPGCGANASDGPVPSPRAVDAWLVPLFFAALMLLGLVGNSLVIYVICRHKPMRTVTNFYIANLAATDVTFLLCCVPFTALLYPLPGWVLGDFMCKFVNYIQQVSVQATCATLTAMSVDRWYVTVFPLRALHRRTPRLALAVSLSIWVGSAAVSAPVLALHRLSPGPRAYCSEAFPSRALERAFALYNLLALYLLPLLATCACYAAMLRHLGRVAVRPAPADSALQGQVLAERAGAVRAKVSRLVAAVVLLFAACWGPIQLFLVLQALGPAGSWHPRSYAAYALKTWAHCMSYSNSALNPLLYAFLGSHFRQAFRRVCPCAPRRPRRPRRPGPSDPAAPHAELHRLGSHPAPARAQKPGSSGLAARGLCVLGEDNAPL
Test: cell-based or functional assay
Non-standard residues stand in square brackets, D forms with d. No end group written: not given here. *: point of attachment. Propanoyl(3-indol-3-yl) = O=C(CCc1c[nH]c2ccccc12)*; Arg(Me) = CNC(=N)NCCC[C@H](N)C(=O)O; azaGly = NNC(=O)O
Examples of binders with documented Ca ion level-increasing activity (FLIPR, 40 s) follow.
# output: bare number, implied unit EC50/MS10 EC50

{"binder": "{Propanoyl(3-indol-3-yl)}-NSF[azaGly]L[Arg(Me)]F-NH2 (also: also named 1-(3-indolyl)propionyl cap, also called Compound No. 260) [des(1-3)-3-(3-Indolyl)propionyl-[AzaGly7,Arg(Me)9]MS10]", "quantitative-result": 4.3}
{"binder": "[dY]NWASFGL[Arg(Me)]F-NH2 (N-terminus assumed; SMILES CNC(=N)NCCC[C@H](NC(=O)[C@H](CC(C)C)NC(=O)CNC(=O)[C@H](Cc1ccccc1)NC(=O)[C@H](CO)NC(=O)[C@H](C)NC(=O)[C@H](Cc1c[nH]c2ccccc12)NC(=O)[C@H](CC(N)=O)NC(=O)[C@H](N)Cc1ccc(O)cc1)C(=O)N[C@@H](Cc1ccccc1)C(N)=O, also called Compound No. 210) [[D-Tyr1,Ala4,Arg(Me)9]MS10]", "quantitative-result": 9.3}
{"binder": "[dY]TNSF[azaGly]L[Arg(Me)]F-NH2 (also called Compound No. 241) [des(1)-[D-Tyr2,Thr3,AzaGly7,Arg(Me)9]MS10]", "quantitative-result": 5.3}

Look at this binder and give its reported Ca ion level-increasing activity (FLIPR, 40 s). [dY]NWNSFGL[Arg(Me)]F-NH2 (also: bond 6-7 CONH replaced by CH2NH, also called Compound No. 308) [[6Ψ7,CH2NH,D-Tyr1,Arg(Me)9]MS10]
2.6
